All values here come from patent US20230040182A1.

Reported pIC50 values for the following compounds.
# targetDesc: UniProt:P22001
# Sequence (P22001 whole entry): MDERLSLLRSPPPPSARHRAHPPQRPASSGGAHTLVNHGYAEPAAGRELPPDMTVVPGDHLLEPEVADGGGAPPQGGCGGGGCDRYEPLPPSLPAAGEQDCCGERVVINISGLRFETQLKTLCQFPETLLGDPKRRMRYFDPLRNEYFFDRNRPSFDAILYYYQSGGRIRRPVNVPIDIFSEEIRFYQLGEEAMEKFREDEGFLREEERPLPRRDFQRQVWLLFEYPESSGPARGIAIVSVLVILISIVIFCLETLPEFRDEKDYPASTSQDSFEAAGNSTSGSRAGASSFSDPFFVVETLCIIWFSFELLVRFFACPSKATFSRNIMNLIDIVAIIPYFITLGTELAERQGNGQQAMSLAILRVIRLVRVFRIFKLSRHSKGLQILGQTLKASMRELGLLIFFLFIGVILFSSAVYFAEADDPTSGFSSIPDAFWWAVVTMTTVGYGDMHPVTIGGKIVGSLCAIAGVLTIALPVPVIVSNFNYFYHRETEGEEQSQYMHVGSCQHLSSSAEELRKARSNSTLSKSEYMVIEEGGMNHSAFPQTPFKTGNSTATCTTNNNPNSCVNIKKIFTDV
# assayDetails: Kv1.3 potassium channel blocker activity, automated whole-cell patch clamp (Patchliner)
# conditionLabel: CHO-K1 cells stably expressing Kv1.3; whole-cell current, Hill fit
pIC50: −log10 of the molar value.

Please review the entries below; each comes with its answer.
{"compound": "O=C1NNC(=O)N2CC[C@@H](c3c(O)ccc(Cl)c3Cl)C[C@@H]12", "targetDesc": "UniProt:P22001", "pIC50": "> 6.00"}
{"compound": "O=C1NNC(=O)N2CC[C@H](c3c(O)ccc(Cl)c3Cl)C[C@H]12", "targetDesc": "UniProt:P22001", "pIC50": "> 5.00"}
{"compound": "CN1CC(=O)N2CCC(c3c(O)ccc(Cl)c3Cl)CC2C1=O (centres unmarked)", "targetDesc": "UniProt:P22001", "pIC50": "> 6.00"}
{"compound": "O=C1[C@@H]2C[C@H](c3c(O)ccc(Cl)c3Cl)CCN2C(=O)CN1CCO [Compound 26]", "targetDesc": "UniProt:P22001", "pIC50": "> 6.00"}
{"compound": "O=C1[C@@H]2C[C@H](O)CN2C(=O)[C@H]2C[C@@H](c3c(O)ccc(Cl)c3Cl)CCN12 (single isomer, unassigned; isomer 3)", "targetDesc": "UniProt:P22001", "pIC50": "> 5.00"}
{"compound": "CC(C)[C@H]1NC(=O)[C@@H]2C[C@H](c3c(O)ccc(Cl)c3Cl)CCN2C1=O", "targetDesc": "UniProt:P22001", "pIC50": "> 6.00"}
{"compound": "O=C1[C@@H]2C[C@H](O)CN2C(=O)[C@@H]2C[C@H](c3c(O)ccc(Cl)c3Cl)CCN12 (single isomer, unassigned; isomer 4)", "targetDesc": "UniProt:P22001", "pIC50": "> 6.00"}

(Q) Any idea what pIC50 was measured for O=C1[C@@H]2C[C@H](c3c(O)ccc(Cl)c3Cl)CCN2C(=O)CN1CCO (relative stereo) [Compound 7] ?
(A) > 6.00
